# credit: patent US5563155A

# System: Pseud. aeruginosa UI-18
# METHOD DESCRIPTION: in vitro antibacterial activity, microtitration dilution (MIC), Pseud. aeruginosa UI-18
# Assay type: cell-based
# TEST PARAMETERS: Pseudomonas aeruginosa, UI18, read-out: minimum inhibiting concentration (MIC)
Where a name gives a salt, the structure may show the parent alone.
EXPERIMENTAL ENDPOINT: MIC (µg/mL)
// return numeric value only (unit: µg/mL, not printed)

CCOc1c(N2CC[C@@H]([C@H](C)N)C2)c(F)cc2c(=O)c(C(=O)O)cn(C3CC3)c12 ... 1.6
C[C@H](N)[C@@H]1CCN(c2cc3c(cc2F)c(=O)c(C(=O)O)cn3C2CC2)C1 ... 0.4
CN[C@@H](C)[C@@H]1CCN(c2nc3c(cc2F)c(=O)c(C(=O)O)cn3-c2ccc(F)cc2F)C1 [Example 64, monohydrochloride] ... 3.1
CCN[C@@H](C)[C@@H]1CCN(c2nc3c(cc2F)c(=O)c(C(=O)O)cn3-c2ccc(F)cc2F)C1 ... 3.1
CN[C@@H](C)[C@H]1CCN(c2c(F)c(N)c3c(=O)c(C(=O)O)cn(C4CC4)c3c2F)C1 ... 3.1
CN[C@@H](C)[C@@H]1CCN(c2nc3c(cc2F)c(=O)c(C(=O)O)cn3C2CC2)C1 ... 1.6
CCN[C@@H](C)[C@@H]1CCN(c2c(F)c(N)c3c(=O)c(C(=O)O)cn(C4CC4)c3c2F)C1 ... 0.8
C[C@H]([C@H]1CCN(c2nc3c(cc2F)c(=O)c(C(=O)O)cn3C2CC2)C1)N(C)C ... 1.6

Specify MIC for Cc1c(F)c(N2CC[C@@H]([C@H](C)N)C2)cc2c1c(=O)c(C(=O)O)cn2C1CC1 and stop.
0.8

For the compound C[C@@H](N)[C@H]1CCN(c2nc3c(cc2F)c(=O)c(C(=O)O)cn3C2CC2)C1 , give its measured MIC value.
0.8

Indicate its recorded MIC; the compound in question is C[C@@H](N)[C@@H]1CCN(c2cc3c(cc2F)c(=O)c(C(=O)O)cn3C2CC2)C1
1.6

Consider the compound C[C@H](N)[C@H]1CCN(c2nc3c(cc2F)c(=O)c(C(=O)O)cn3C2CC2)C1 and give its recorded MIC.
1.6

Look up and report measured MIC for this entry: CN[C@@H](C)[C@@H]1CCN(c2c(F)c(N)c3c(=O)c(C(=O)O)cn(C4CC4)c3c2OC)C1
1.6

Tell me its MIC given CN[C@@H](C)[C@H]1CCN(c2nc3c(cc2F)c(=O)c(C(=O)O)cn3C2CC2)C1 as the entry.
3.1

Provide MIC value for the following compound: CCN[C@@H](C)[C@@H]1CCN(c2nc3c(cc2F)c(=O)c(C(=O)O)cn3C2CC2)C1
1.6
